All values here come from patent US8389565B2.

- test_system: porcine pancreatic α-amylase (PPA) (Sus scrofa, UniProt P00690)
- Construct: purchased Sigma
- Sequence (P00690 16-511): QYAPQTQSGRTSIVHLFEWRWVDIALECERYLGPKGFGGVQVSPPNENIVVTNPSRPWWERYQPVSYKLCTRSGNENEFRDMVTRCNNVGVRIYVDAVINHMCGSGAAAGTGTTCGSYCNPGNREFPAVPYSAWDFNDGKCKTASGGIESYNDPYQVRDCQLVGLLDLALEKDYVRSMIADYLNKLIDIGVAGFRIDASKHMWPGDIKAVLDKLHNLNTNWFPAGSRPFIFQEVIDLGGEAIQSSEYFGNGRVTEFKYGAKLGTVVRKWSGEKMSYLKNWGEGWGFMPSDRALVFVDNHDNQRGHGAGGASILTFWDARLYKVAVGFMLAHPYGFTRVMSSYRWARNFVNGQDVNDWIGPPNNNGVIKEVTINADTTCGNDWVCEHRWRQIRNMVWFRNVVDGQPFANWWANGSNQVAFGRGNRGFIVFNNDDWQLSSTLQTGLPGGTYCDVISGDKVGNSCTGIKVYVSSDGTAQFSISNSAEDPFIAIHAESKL
- measurement_protocol: Inhibition of porcine pancreatic α-amylase activity towards DP17 amylose
- Format: biochemical
- Protocol: Porcine pancreatic α-amylase (PPA) and bovine serum albumin (BSA) were purchased from Sigma. Amylose EX-1 (DP17; average degree of polymerization 17) was purchased from Hayashibara Chemical Laboratories (Okayama, Japan). […] The enzyme concentration was determined by aid of amino acid analysis as determined using an LKB model Alpha Plus amino acid analyzer. […]
pKi: −log10 of the molar value.
pKi values, listed per item

Fill in reported pKi for this entry: "O=S(=O)([O-])O[C@@H](CO)[C@H](O)C[Se@+]1C[C@@H](O)[C@H](O)[C@H]1CO"
< 2.30

Fill in reported pKi for this entry: "O=S(=O)([O-])O[C@H](CO)[C@@H](O)C[Se@+]1C[C@@H](O)[C@H](O)[C@H]1CO"
< 2.30
